B1: tRNA (parent)
chain: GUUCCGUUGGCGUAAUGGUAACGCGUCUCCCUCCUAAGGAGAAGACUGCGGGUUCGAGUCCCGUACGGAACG

- Variants of: B1
- EXPERIMENT_NOTES: yeast fitness relative to wild type (ratio to wild type); higher = fitter; tRNA-Arg(CCU), competitive growth, 37 C, YPD
Variants at the floor of the assay were thinned out.
Could you label it Yes if measured yeast fitness is 0.6 or higher, and No otherwise?

{"columns": ["VARIANT_NOTATION", "GROUP"],
 "data": [
  ["U26G C30U U32G G52C", "No"]
]}

Enquiry: yeast fitness >= 0.6 for C4U A15C C30G G52A A65C ?
Return: No

Enquiry: Lookup U47A G63A
Return: Yes

Enquiry: Continue with A21G C34U A65C
Return: No

Enquiry: And the next one, C33U A70C ?
Return: Yes

Enquiry: Another variant to check: C4U C22G U59C
Return: Yes

# credit: the RNAGym collection of RNA variant scans (doi:10.1126/science.aae0568)
